assay_summary: Example 3: pharmacokinetics of Compound 1 and RTV at a range of RTV doses
assay_setup: both, human, plasma, oral, Half-life, Compound 1 in plasma; Compound 1 125 mg + 100 mg RTV QD; mean (CV %)
measure: half-life (h)
Quick note: give the figure in h, leave out the unit.

Lookup result for COc1cc2c(cc1Cc1cccc(Cl)c1F)c(=O)c(C(=O)O)cn2[C@H](CO)C(C)C [Compound 1] ; measured half-life: 11.5

* * *

assay_summary: Example 1: pharmacokinetics of Compound 1 alone and with RTV in healthy subjects
Format: in vivo, human
assay_setup: both sexes, human, plasma, oral, 100 mg, Compound 1 in plasma; Day 10, Compound 1 100 mg twice daily alone; mean (% CV), N = 12; read-out: AUC (AUCtau)
measure: AUC (ng·h/mL)
Unit ng·h/mL implied. Number only.

Lookup result for COc1cc2c(cc1Cc1cccc(Cl)c1F)c(=O)c(C(=O)O)cn2[C@H](CO)C(C)C [Compound 1] ; measured AUC: 719

* * *

assay_summary: Example 3: pharmacokinetics of Compound 1 and RTV at a range of RTV doses
assay_setup: both, human, in vivo, AUCtau, RTV in plasma; Compound 1 125 mg + 100 mg RTV QD; mean (CV %)
measure: AUC (ng·h/mL)
Give the value in ng·h/mL but do not write ng·h/mL after it.

So for CC(C)c1nc(CN(C)C(=O)N[C@H](C(=O)N[C@@H](Cc2ccccc2)C[C@H](O)[C@H](Cc2ccccc2)NC(=O)OCc2cncs2)C(C)C)cs1 [Ritonavir, reference compound] , the logged AUC turned out to be 6550

* * *

assay_summary: Example 1: pharmacokinetics of Compound 1 alone and with RTV in healthy subjects
Format: in vivo, human
assay_setup: both sexes, human, plasma, oral, 100 mg, Compound 1 in plasma; Day 10, Compound 1 100 mg twice daily alone, steady state; median (min, max)
measure: half-life (h)
I only need the number, in h, no unit after it.

Please fill in: half-life reported for COc1cc2c(cc1Cc1cccc(Cl)c1F)c(=O)c(C(=O)O)cn2[C@H](CO)C(C)C = 3.5

* * *

System: CYP3A (hepatic)
assay_summary: Example 3: IV midazolam probe for CYP3A activity at a range of RTV doses
assay_setup: human, plasma, iv, probe midazolam, AUCinf (mean), MDZ 1 mg IV, +200 mg RTV QD (with Compound 1 125 mg)
measure: AUC(0-inf) (ng·h/mL)
Lab book: enter the figure in ng·h/mL, no units written.

Lab note: Cc1ncc2n1-c1ccc(Cl)cc1C(c1ccccc1F)=NC2 gave AUC(0-inf) of 146

* * *

assay_summary: Example 3: pharmacokinetics of Compound 1 and RTV at a range of RTV doses
assay_setup: both, human, plasma, oral, Half-life, Compound 1 in plasma; Compound 1 125 mg + 20 mg RTV QD; mean (CV %)
measure: half-life (h)
Return type: number; implicit unit h.

Documented half-life of COc1cc2c(cc1Cc1cccc(Cl)c1F)c(=O)c(C(=O)O)cn2[C@H](CO)C(C)C : 4.34

* * *

assay_summary: Example 7: food effect on pharmacokinetics of Compound 1 in healthy Japanese males
Type: in vivo
assay_setup: male, human, plasma, po, 400 mg, Fasted, single oral dose 400 mg; Mean ± SD (n = 6)
Protocol: Subjects in the 400 mg fasted cohort received an additional 400 mg dose with breakfast after a washout period (generally a minimum of ten days after the initial administration). […] The plasma samples were extracted by solid phase extraction using Empore™ Disk Plate (C8SD), and then measured by high-performance liquid chromatography/tandem mass spectrometry (LC/MS/MS) (HPLC model 2795 separations module from Waters; mass spectrometer model AP14000 from MDS SCIEX). […]
measure: Cmax (ng/mL)
Quick note: give the figure in ng/mL, leave out the unit.

Cmax reading for COc1cc2c(cc1Cc1cccc(Cl)c1F)c(=O)c(C(=O)O)cn2[C@H](CO)C(C)C : 264
